Data origin, for the record: the Immune Epitope Database (IEDB)

Molecular target: HLA-A*02:12
Assay: IEDB peptide-MHC binding, purified MHC/direct/fluorescence; filed as Kd, often an IC50 or EC50 that approximates it; bounds were set here for any values at or beyond the usual limits of such assays
Details: source organism: Mycobacterium tuberculosis str. Haarlem
Parameter: Kd (nM)
Give just the number in nM; leave the unit off.

Give the measured Kd of LLYDGSFAV . 2

* * *

Molecular target: HLA-B*73:01
Assay: IEDB peptide-MHC binding, purified MHC/competitive/fluorescence; filed as Kd, often an IC50 or EC50 that approximates it; bounds were set here for any values at or beyond the usual limits of such assays
Details: source organism: Encephalitozoon cuniculi GB-M1
Parameter: Kd (nM)
Give just the number in nM; leave the unit off.

Give the measured Kd of YRFNLRRKM . 85.1
